Listing of recorded GI50 by entry.
Tested on: 786-0
Assay: NCI tumour cell line growth inhibition, 48 h
Activity calls are given as the source filed them. Rule as the data show it: active = GI50 up to about 1.1 µM and inactive = higher. Residues, ends and D or L forms follow the SMILES beside them. *: point of attachment. Boc = CC(C)(C)OC(=O)*

Study these solved cases before continuing.
[
  {
    "Compound": "NC(=O)Cn1c(=O)oc2cc(C(=O)CN3CCOCC3)ccc21",
    "GI50": "> 100 µM (inactive)"
  },
  {
    "Compound": "CC(NC(=O)C(NC(=O)OC(C)(C)C)C(C)C)C(=O)N1CCCC1C(=O)NCC(=O)NC(C(=O)NCC(=O)O)C(C)C (configuration not stated) (Boc-VAPGVG-OH; configuration not given here)",
    "GI50": "> 100 µM (inactive)"
  },
  {
    "Compound": "C=CCN(C(=O)OC(C)(C)C)C1=CC2C(C)=CN(S(=O)(=O)c3ccccc3)C2C(OCc2ccccc2)=C1 (configuration not stated)",
    "GI50": "> 100 µM (inactive)"
  },
  {
    "Compound": "O=C(NNc1ccc([N+](=O)[O-])cc1)C1OC(CO)C(O)C1O (configuration not stated)",
    "GI50": "26.4 µM (inactive)"
  },
  {
    "Compound": "CCOc1ccccc1NC(=O)C1=C(C)NC(C)=C(C(=O)Nc2ccccc2OCC)C1c1cccc([N+](=O)[O-])c1",
    "GI50": "57.9 µM (inactive)"
  },
  {
    "Compound": "O=[N+]([O-])c1ccc(Cl)cc1N/N=C/c1cccc2cccnc12",
    "GI50": "> 100 µM (inactive)"
  }
]

Next:
input: For the compound "NS(=O)(=O)c1ccc(NCc2cnc3ccccc3c2)cc1" , give its measured GI50 value.
output: 39.4 µM (inactive)

---

Listing of recorded GI50 by entry.
Test system: HL-60
Assay: NCI tumour cell line growth inhibition, 48 h
The source made the active and inactive calls. Cut-off read from the data, not from the text of the source: active = GI50 up to about 1.1 µM and inactive = higher.

input: // output GI50; input "COc1cc([C@@H]2c3cc4c(cc3[C@@H](NCCCN(C)C)[C@H]3COC(=O)[C@H]23)OCO4)cc(OC)c1O" ; system HL-60
output: 0.0582 µM (active)

input: // output GI50; input "COc1ccc2nc3cc(Cl)ccc3c(NCCNCCCNC(=O)c3cc(-c4ccccc4)nc4ccccc34)c2c1" ; system HL-60
output: 31.3 µM (inactive)

input: // output GI50; input "Cc1c(NC(=O)Nc2c(Cl)cccc2Cl)c(=O)n(-c2ccccc2)n1C" ; system HL-60
output: > 100 µM (inactive)

input: // output GI50; input "COC(=O)CCc1cccnc1/C=N/O" ; system HL-60
output: > 100 µM (inactive)

input: // output GI50; input C=C(C)C(=O)O[C@H]1CC2=CC(CC(C)=C[C@H]3OC(=O)C(=C)C13)OC2=O (some centres undefined) ; system HL-60
output: 3.65 µM (inactive)

input: // output GI50; input "O=C(NP(=O)(N1CC1)N1CC1)c1cc(I)ccc1I" ; system HL-60
output: 5.06 µM (inactive)

---

Tested on: MOLT-4
Experiment: NCI tumour cell line growth inhibition, 48 h
Calls of active or inactive are those of the source. Cut-off read from the data, not from the text of the source: active = GI50 up to about 1.1 µM and inactive = higher.
Reported Endpoint: GI50

Study these solved cases before continuing.
[
  {
    "Compound": "Cn1cc(C2(C)CC(C)(C)c3c2n(C)c2ccccc32)c2ccccc21 (stereo not given)",
    "GI50": "42.4 µM (inactive)"
  },
  {
    "Compound": "Fc1cccc(C2ON=C(c3ccccc3)N2C23CC4CC(CC(C4)C2)C3)c1 (stereo not given)",
    "GI50": "> 10 µM (inactive)"
  },
  {
    "Compound": "COc1c(O)c2c3c(c(C)cc(O)c3c1O)C(=O)C(O)(C(C)(C)C(C)=O)C2=O (stereo not given)",
    "GI50": "> 100 µM (inactive)"
  },
  {
    "Compound": "CC(C(=O)O)c1ccc(-c2ccccc2)c(F)c1 (stereo not given)",
    "GI50": "> 100 µM (inactive)"
  }
]

Next:
input: For the compound "Cc1nc(C)c(C(=O)NNC(=O)Cc2ccccc2)cc1C(=O)NNC(=O)Cc1ccccc1" , give its measured GI50 value.
output: > 100 µM (inactive)
